assay: Human pregnane X receptor (PXR) small molecule agonists, qHTS cell viability counter screen (AID 1346977); conditions: PXR-Luc HepG2 viability, CellTiter-Fluor, 24 h; series mostly up to 92.4 µM; note: nearly all actives have a fitted effect of over 50% in size
Inconclusive results are not listed. The source made the active and inactive calls. Calls come from the whole dose curve; as a rule, active = well fitted cell-killing curve with a large enough effect in the repeat runs; inconclusive = weak or mixed curves, or effect the other way; inactive = flat fitted curve, though single readings scatter.
measured.property: Potency

Some solved cases for reference:
[[record]]
molecule = "N#CCCSCCC#N"
result = "inactive"

[[record]]
molecule = "CCC(C)c1cc(C(C)(C)C)cc(-n2nc3ccccc3n2)c1O (stereo not drawn)"
result = "inactive"

[[record]]
molecule = "ClC1=C(Cl)[C@]2(Cl)[C@H]3[C@H]([C@H]4C=C[C@H]3C4)[C@@]1(Cl)C2(Cl)Cl"
result = "inactive"

[[record]]
molecule = "BrCBr"
result = "inactive"

[[record]]
molecule = "Cc1ccc(OP(=O)(Oc2ccccc2)Oc2ccccc2)cc1"
result = "inactive"

[[record]]
molecule = "Clc1ccc(-c2ccc(Cl)c(Cl)c2Cl)c(Cl)c1Cl"
result = "inactive"

[[record]]
molecule = "Cc1cc(C)cc(OP(=O)(Oc2cc(C)cc(C)c2)Oc2cc(C)cc(C)c2)c1"
result = "inactive"

[[record]]
molecule = "O=S(=O)(c1ccc(Cl)cc1)c1ccc(Cl)cc1"
result = "inactive"

[[record]]
molecule = "COS(=O)(=O)c1ccc(C)cc1"
result = "inactive"

[[record]]
molecule = "O=[N+]([O-])c1ccc(Oc2ccc(C(F)(F)F)cc2[N+](=O)[O-])cc1"
result = "inactive"


Quick one: Potency for "c1ccc2c(c1)[nH]c1cnccc12" ?
inactive

And for "CCOC(=O)C1(c2ccccc2)CCN(CCC(C#N)(c2ccccc2)c2ccccc2)CC1" ?
inactive

And for "c1ccc(Nc2ccc3ccccc3c2)cc1" ?
inactive

And for "C=CC(=O)N(C)C" ?
inactive

And for "BrC(Br)C(Br)(Br)Br" ?
inactive
